The measurements presented in this section are drawn from patent US12691070B2.

tested on: Hep G2 cells; test: In vitro toxicity (CellTiter-Glo cell viability), Hep G2; format: cell-based; details: cirRNA (SEQ ID NO: 1) LNPs; Hep G2 cells;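 also: percent of untreated cells luminescence signal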
So I've got a bunch of compounds here, and I need their In vitro Viability HepG2 values.
Write the number in % without appending the unit.

Quick check: In vitro Viability HepG2 of CCCCCCCCC(CCCCCCCC)OC(=O)CCCCCCCN(CCCCCCCCOC(=O)C(CCCCCC)CCCCCCCC)CCOC(=O)NCCCN(C)C (centres unmarked) [Lipid 146] ? 41

Same question, CCCCC/C=C\CCOC(=O)CCCCCN(CCCCCCCCOC(=O)C(CCCCCC)CCCCCCCC)CCOC(=O)NCCN1CCN(C)CC1 (centres unmarked) [Lipid 187] this time 93

Same question, CCCCC/C=C\CCOC(=O)CCCCCN(CCCCCC(=O)OCC(CCCCCCCC)CCCCCCCCCC)CCOC(=O)NCCN1CCCC1 (centres unmarked) [Lipid 244] this time 94

Same question, CCCCCCCCCCC(CCCCCCCC)COC(=O)CCCCCN(CCCCCCCCOC(=O)C(CCCCCC)CCCCCCCC)CCOC(=O)NCCN(C)C (centres unmarked) [Lipid 51] this time 88

Same question, CCCCCCCC/C=C\CCCCCCCCN(CCCCCCCCOC(=O)C(CCCCCC)CCCCCCCC)CCOC(=O)NCCN1CCCCC1 (centres unmarked) [Lipid 219] this time 58

Same question, CCCCCCCCCCCOC(=O)CCCCCN(CCCCCCCC(=O)OC(CCCCCCCC)CCCCCCCC)CCOC(=O)NCCN1CCCC1 [Lipid 164] this time 74

Same question, CCCCCCCCCC(=O)OCCCCCCCCN(CCCCCCCCOC(=O)CCCCCCCCC)CCOC(=O)NCc1ncc[nH]1 [Lipid 203] this time 103

Same question, CCCCCCCCC(CCCCCC)C(=O)OCCCCCCCCN(CCCCCCCCCCC(=O)OCCCCCC)CCOC(=O)NCCN1CCN(C)CC1 (centres unmarked) [Lipid 46] this time 102

Same question, CCCCCCCC/C=C\CCCCCCCCN(CCCCCCCCOC(=O)C(CCCCCC)CCCCCCCC)CCOC(=O)NCCN(C)C (centres unmarked) [Lipid 211] this time 90

Same question, CCCCCCCOC(=O)CCCCCCCCCN(CCCCCCCCCC(=O)OCCCCCCC)CCOC(=O)NCCN(C)C [Lipid 120] this time 100

Same question, CCCCCCCCCCCOC(=O)CCCCCN(CCCCCC(=O)OCCCCCCCCCCC)CCOC(=O)NCCN1CCCC1 [Lipid 151] this time 110

Same question, CCCCC/C=C\C/C=C\CCCCCCCCN(CCCCCC(=O)OCC(CCCCCCCC)CCCCCCCCCC)CCOC(=O)NCCCN(C)C (centres unmarked) [Lipid 81] this time 121

Same question, CCCCCCCCCCC(CCCCCCCC)COC(=O)CCCCCN(CCCCCC(=O)OCC(CCCCCCCC)CCCCCCCCCC)CCOC(=O)NCc1ncc[nH]1 (centres unmarked) [Lipid 171] this time 97

Same question, CCCCC/C=C\C/C=C\CCCCCCCCN(CCCCCCCC/C=C\C/C=C\CCCCC)CCOC(=O)NCCN1CCOCC1 [Lipid 36] this time 82
